test system: CACO-2 cells; experiment: MTT cell viability, dose-response curves 24 h; format: cell-based; conditions: Homo sapiens, Caco-2; MTT, 24 h; read-out: IC50 (half-maximal inhibitory concentration), CACO-2
measured.attribute: IC50 (µg/mL)
Give bare numbers, in µg/mL.

// solved cases for IC50 follow
O=c1c(O)c(-c2ccc(O)c(O)c2)oc2cc(O)ccc12 [Compound 16, fisetin]
100
COC(=O)c1cc(O)c(O)c(O)c1 [Compound 2, methyl 3,4,5-trihydroxybenzoate]
100
O=C(O)c1cc(O)c(O)c(O)c1 [Gallic acid, gallic acid]
25
O=c1c(O)c(-c2cc(O)c(O)c(O)c2)oc2cc(O)cc(O)c12 [Compound 5, myricetin]
62
O=c1c(O)c(-c2ccc(O)c(O)c2)oc2cc(O)cc(O)c12 [Compound 9, quercetin]
150

Consider now this further compound.
Q. Which IC50 value belongs to CC(=O)O[C@H]1C(=O)[C@@]2(C)[C@H]([C@H](OC(=O)c3ccccc3)[C@]3(O)C[C@H](OC(=O)[C@H](O)[C@@H](NC(=O)c4ccccc4)c4ccccc4)C(C)=C1C3(C)C)[C@]1(OC(C)=O)CO[C@@H]1C[C@@H]2O [Paclitaxel, paclitaxel, reference compound] ?
A. 20
